test system: Differentiated 3T3-L1 adipocytes; test: Glucose uptake assay; type: cell-based; settings: 3T3-L1 adipocytes, 24 hrs
REPORTED PROPERTY: pEC50
On this scale, pEC50 is minus log10 of a concentration expressed in M (mol/L).

For reference, reported pEC50 for FGF21ΔH-K56-K59R-K69R-K122R: FGF21 lysine mutant, SEQ ID NO:18 (protein, listed as Homo sapiens) PIPDSSPLLQFGGQVRQRYLYTDDAQQTEAHLEIREDGTVGGAADQSPESLLQLKALRPGVIQILGVRTSRFLCQRPDGALYGSLHFDPEACSFRELLLEDGYNVYQSEAHGLPLHLPGNRSPHRDPAPRGPARFLPLPGLPPAPLEPPGILAPQPPDVGSSDPLSMVGPSQGRSPSYAS stands at 8.26
